Tested on: various cancer cell lines as described in Table 21
MEASUREMENT NOTES: Cell proliferation inhibitory effect on human cancer-derived cancer cell lines (method of Test Example 2)
Format: cell-based
STUDY CONDITIONS: ACHN, Kidney Cancer, 2000 cell/well, read-out: cell proliferation inhibitory effect, ACHN
Protocol: Human derived breast cancer cell line HCC 1806 cells were daily passaged at a cell density not exceeding 80% in ATCC recommended Roswell Park Memorial Institute medium (RPMI-1640) containing 10% fetal bovine serum (FBS). […] 100 μL of an extract solution (0.1 N NaH2PO4: 100% ethanol=1:1) was added to each well and mixed, and the mixture was measured at a wavelength of 540 nm using a plate reader (MTP-450 manufactured by Corona Electric Co., Ltd.). […]
Field: label. Allowed values: satisfied (IC50 < 400 nM) or not satisfied (IC50 >= 400 nM).

Study these solved cases before continuing.
Is 400 nM strictly greater than the compound's reported IC50? compound: Cc1c(Br)ccc(F)c1[C@@H](C)[C@H](NS(=O)(=O)c1ccc(Cl)c2c1OCCC2(C)O)c1n[nH]c(=O)o1 (single isomer, unassigned) [Example 222A]
satisfied

IC50 strictly < 400 nM for this compound? [2H]C([2H])([2H])C1(O)CCOc2c(S(=O)(=O)N[C@H](c3n[nH]c(=O)o3)[C@H](C)c3c(F)ccc(Cl)c3C)ccc(Cl)c21 (single isomer, unassigned) [Example 228A]
satisfied

Identify whether the compound Cc1c(Cl)ccc(F)c1[C@@H](C)[C@H](NS(=O)(=O)c1ccc(Cl)cc1C(N)=O)c1n[nH]c(=O)o1 records IC50 below 400 nM.
not satisfied

Determine whether this compound shows IC50 lower than 400 nM (ties excluded): Cc1ccc(F)c([C@@H](C)[C@H](NS(=O)(=O)c2ccc(Cl)cc2C(N)=O)c2n[nH]c(=O)o2)c1C
not satisfied

Does this compound meet the criterion IC50 < 400 nM? Cc1ccc(F)c([C@@H](C)[C@H](NS(=O)(=O)c2ccc(Cl)c3c2OCCC3O)c2n[nH]c(=O)o2)c1C (single isomer, unassigned) [Example 235A]
satisfied

***
Given CCc1ccc(F)c([C@@H](C)[C@H](NS(=O)(=O)c2ccc(Cl)cc2C(N)=O)c2n[nH]c(=O)o2)c1C , is recorded IC50 strictly lower than 400 nM?
not satisfied

is_below(IC50, 400 nM) for Cc1c(Cl)ccc(F)c1[C@@H](C)[C@H](NS(=O)(=O)c1ccc(Cl)c2c1OCCC2(C)O)c1n[nH]c(=O)o1 (single isomer, unassigned) [Example 209A] ?
satisfied

Hello, is IC50 of the following compound strictly smaller than 400 nM? Cc1ccc(F)c([C@@H](C)[C@H](NS(=O)(=O)c2ccc(Br)cc2C(N)=O)c2n[nH]c(=O)o2)c1C
not satisfied

Regarding [2H]C([2H])([2H])C1(O)CCOc2c(S(=O)(=O)N[C@H](c3n[nH]c(=O)o3)[C@H](C)c3c(F)ccc(C)c3C)ccc(Cl)c21 (single isomer, unassigned) [Example 200A] , kindly confirm whether its IC50 is beneath 400 nM.
satisfied

====

For each of the compounds below, state its pIC50.
Tested on: various cancer cell lines as described in Table 21
MEASUREMENT NOTES: Cell proliferation inhibitory effect on human cancer-derived cancer cell lines (method of Test Example 2)
Format: cell-based
STUDY CONDITIONS: RPMI7932, Melanoma, 4000 cell/well, read-out: cell proliferation inhibitory effect, RPMI7932
Answers are plain numbers, as −log10 of the molar value.

Bench note: what pIC50 did [2H]C([2H])([2H])C1(O)CCOc2c(S(=O)(=O)N[C@H](c3n[nH]c(=O)o3)[C@H](C)c3c(F)ccc(C)c3C)ccc(Cl)c21 (single isomer, unassigned) [Example 200A] show?
6.37

Take each entry in turn and give its pIC50.
1. Cc1c(Cl)ccc(F)c1[C@@H](C)[C@H](NS(=O)(=O)c1ccc(Cl)cc1C(N)=O)c1n[nH]c(=O)o1
2. CCc1ccc(F)c([C@@H](C)[C@H](NS(=O)(=O)c2ccc(Cl)cc2C(N)=O)c2n[nH]c(=O)o2)c1C

1. 5.49
2. 5.32
